Data credit: ChEMBL document CHEMBL1128913

- Tested on: DA-3 cell line
- method.description: Cytotoxic activity against DA-3 mouse mammary adenocarcinoma cells
- Format: functional, cell-based
pIC50: −log10 of the molar value.
readout.name: pIC50

molecule | result
COc1ccc(C[C@H]2NC(=O)/C=C/C[C@@H](C(=O)/C=C\c3ccccc3)OC(=O)[C@H](CC(C)C)OC(=O)CCNC2=O)cc1 | < 8.00
COc1ccc(C[C@H]2NC(=O)/C=C/C[C@@H](C(O)/C=C/c3ccccc3)OC(=O)[C@H](CC(C)C)OC(=O)CCNC2=O)cc1 (some centres undefined) | < 8.00
COc1ccc(C[C@H]2NC(=O)/C=C/C[C@@H](C[C@H]3O[C@@H]3c3ccccc3)OC(=O)[C@H](CC(C)C)OC(=O)[C@H](C)CNC2=O)cc1 | 8.52

In: Identify pIC50 associated with the molecule COc1ccc(C[C@H]2NC(=O)/C=C/C[C@@H](C(=O)/C=C/c3ccccc3)OC(=O)[C@H](CC(C)C)OC(=O)[C@H](C)CNC2=O)cc1Cl
Out: < 8.00

----------
- Test system: DA-3 cell line
- method.description: Cytotoxic activity against DA-3 mouse mammary adenocarcinoma cells
- Format: functional, cell-based
pIC50: −log10 of the molar value.
Recorded pIC50 by entry

For orientation, consider the following solved cases.
compound | experimental.target | pIC50
COc1ccc(C[C@H]2NC(=O)/C=C/C[C@@H](C(O)CCc3ccccc3)OC(=O)[C@H](CC(C)C)OC(=O)CCNC2=O)cc1 (stereo partly drawn) | DA-3 cell line | < 8.00
COc1ccc(C[C@H]2NC(=O)/C=C/C[C@@H](C(=O)C#Cc3ccccc3)OC(=O)[C@H](CC(C)C)OC(=O)[C@H](C)CNC2=O)cc1 | DA-3 cell line | < 8.00

In: Identify pIC50 associated with the compound COc1ccc(C[C@H]2NC(=O)/C=C/C[C@@H]([C@H](C)[C@H]3O[C@@H]3c3ccccc3)OC(=O)[C@H](CC(C)C)OC(=O)[C@H](C)CNC2=O)cc1
Out: 9.70

----------
- System: DA-3 cell line
- method.description: Cytotoxic activity against DA-3 mouse mammary adenocarcinoma cells
- Assay type: functional, cell-based
pIC50: −log10 of the molar value.
readout.name: pIC50

For orientation, consider the following solved cases.
molecule | result
COc1ccc(C[C@H]2NC(=O)/C=C/C[C@@H]([C@H](C)[C@H]3O[C@@H]3c3ccccc3)OC(=O)[C@H](CC(C)C)OC(=O)[C@H](C)CNC2=O)cc1Cl | 11.70
COc1ccc(C[C@H]2NC(=O)/C=C/C[C@@H]([C@](C)(O)C#Cc3ccccc3)OC(=O)[C@H](CC(C)C)OC(=O)CCNC2=O)cc1 | < 8.00
COc1ccc(C[C@H]2NC(=O)/C=C/C[C@@H]([C@@H](C)/C=C/c3ccccc3)OC(=O)[C@H](CC(C)C)OC(=O)[C@H](C)CNC2=O)cc1 | < 8.00
COc1ccc(C[C@H]2NC(=O)/C=C/C[C@@H](C(C#Cc3ccccc3)OS(C)(=O)=O)OC(=O)[C@H](CC(C)C)OC(=O)CCNC2=O)cc1 (stereo partly specified) | < 8.00
COc1ccc(C[C@H]2NC(=O)/C=C/C[C@@H](C(=O)CCc3ccccc3)OC(=O)[C@H](CC(C)C)OC(=O)CCNC2=O)cc1 | < 8.00

// next item, pIC50 requested
In: Identify pIC50 associated with the molecule COc1ccc(C[C@H]2NC(=O)/C=C/C[C@@H](CCCc3ccccc3)OC(=O)[C@H](CC(C)C)OC(=O)CCNC2=O)cc1
Out: < 8.00
